Biological target: human plasma kallikrein (Homo sapiens)
Assay: Kallikrein inhibition FLINT assay with quenched AMC peptide substrate Z-Gly-Pro-Arg-AMC (end point EP or kinetic KIN reads)
Format: biochemical
Conditions: kinetic reads at 5 min intervals over 30 min; read-out: Kallikrein (KIN) IC50
Quick list: pIC50 per entry.
Formally, pIC50 is defined as -log10 of the concentration c, with c in mol/L.

[[record]]
molecule = "O=C(O)c1ccc(-c2cnn([C@H](CCOC(F)F)c3ccc(-c4c(-n5cc(C(F)(F)F)nn5)ccc(Cl)c4F)c[n+]3[O-])c2)cc1 [Example P858]"
readout_value = 7.94

[[record]]
molecule = "COC(=O)Nc1ccc(-c2cnn(C(COC(C)C)c3ccc(-c4c(-n5cnnn5)ccc(Cl)c4F)c[n+]3[O-])c2)cc1 (stereo not drawn) [Example P229]"
readout_value = 6.57


Form: item CCC(c1cc(OC)c(-c2cc(Cl)ccc2-n2cc(C(F)(F)F)nn2)c[n+]1[O-])n1cc(-c2ccc(C(N)=O)c(F)c2)cn1 (single isomer, unassigned) [Example P878] ; test system human plasma kallikrein (Homo sapiens); pIC50: 8.57

----------
Target: human plasma kallikrein (Homo sapiens, UniProt P03952)
Sequence (P03952 391-638 limits assumed): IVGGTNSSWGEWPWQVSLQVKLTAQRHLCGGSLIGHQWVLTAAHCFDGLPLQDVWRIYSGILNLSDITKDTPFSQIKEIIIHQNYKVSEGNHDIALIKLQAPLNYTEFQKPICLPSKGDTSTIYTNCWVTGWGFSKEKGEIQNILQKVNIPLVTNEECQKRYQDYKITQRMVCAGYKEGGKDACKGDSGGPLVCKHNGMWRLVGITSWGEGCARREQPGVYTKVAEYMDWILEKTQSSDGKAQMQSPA
Sequence (P03952 20-390 partner limits assumed): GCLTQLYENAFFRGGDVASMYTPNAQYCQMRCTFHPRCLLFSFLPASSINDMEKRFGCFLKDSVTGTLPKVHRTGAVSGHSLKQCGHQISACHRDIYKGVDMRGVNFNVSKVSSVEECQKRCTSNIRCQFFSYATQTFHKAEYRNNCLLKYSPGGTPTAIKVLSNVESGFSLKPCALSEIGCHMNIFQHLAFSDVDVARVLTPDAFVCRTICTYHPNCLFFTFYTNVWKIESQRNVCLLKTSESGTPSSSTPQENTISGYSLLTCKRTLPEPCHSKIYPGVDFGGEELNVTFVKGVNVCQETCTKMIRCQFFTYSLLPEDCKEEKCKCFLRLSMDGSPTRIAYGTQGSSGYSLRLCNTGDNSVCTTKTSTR
Experiment: Kallikrein inhibition FLINT assay with quenched AMC peptide substrate Z-Gly-Pro-Arg-AMC (end point EP or kinetic KIN reads)
Type: biochemical
Settings: kinetic reads at 5 min intervals over 30 min; read-out: Kallikrein (KIN) IC50
So basically: is IC50 under 10 nM? Then 1 (yes). Not under? Then 0 (no).

QUERY: Does the reported IC50 of COC(=O)Nc1ccc(-c2cnn(C(Cc3ccc(F)cc3)c3ccc(-c4c(-n5cnnn5)ccc(Cl)c4F)c[n+]3[O-])c2)cc1 (stereo not drawn) stay below 10 nM?
RESULT: 1 (yes)

----------
Target: human plasma kallikrein (Homo sapiens)
Assay: Kallikrein inhibition FLINT assay with quenched AMC peptide substrate Z-Gly-Pro-Arg-AMC (end point EP or kinetic KIN reads)
Assay type: biochemical
Conditions: kinetic reads at 5 min intervals over 30 min; read-out: Kallikrein (KIN) IC50
Quick list: pIC50 per entry.
Formally, pIC50 is defined as -log10 of the concentration c, with c in mol/L.

Solved cases below.
[[record]]
compound = "Cc1cc(-c2cnn(C(Cn3cc(F)cn3)c3ccc(-c4c(-n5cnnn5)ccc(Cl)c4F)c[n+]3[O-])c2)ccn1 (stereo not drawn) [Example P474]"
readout_value = 7.88

[[record]]
compound = "CN(CC(c1ccc(-c2c(-n3cnnn3)ccc(Cl)c2F)c[n+]1[O-])n1cc(-c2ccnc(C(F)(F)F)c2)cn1)C(=O)C1CCOCC1 (stereo not drawn) [Example P407]"
readout_value = 6.96

[[record]]
compound = "CN(CC(c1ccc(-c2c(-n3cnnn3)ccc(Cl)c2F)c[n+]1[O-])n1cc(-c2ccnc(F)c2)cn1)C(=O)OC(C)(C)C (single isomer, unassigned) [Example P354]"
readout_value = 7.41

[[record]]
compound = "Cc1nccn1-c1cnn(C(CCOC(F)F)c2ccc(-c3c(-n4cc(OC(F)F)nn4)ccc(Cl)c3F)c[n+]2[O-])c1 (single isomer, unassigned) [Example P826]"
readout_value = 6.52

[[record]]
compound = "COCC[C@H](c1ccc(-c2c(-n3cnnn3)ccc(Cl)c2F)c[n+]1[O-])n1cc(-c2cc(C(F)(F)F)nn2C)cn1 [Example P619]"
readout_value = 7.05


Below: the item to evaluate.
CCC(c1ccc(-c2c(-n3cnnn3)ccc(Cl)c2F)c[n+]1[O-])n1cc(-c2ccncc2)cn1 (single isomer, unassigned) [Example P212] yielded pIC50 of 7.23

----------
Target: human plasma kallikrein (Homo sapiens, UniProt P03952)
Experiment: Kallikrein inhibition FLINT assay with quenched AMC peptide substrate Z-Gly-Pro-Arg-AMC (end point EP or kinetic KIN reads)
Format: biochemical
Conditions: kinetic reads at 5 min intervals over 30 min; read-out: Kallikrein (KIN) IC50
Quick list: pIC50 per entry.
Formally, pIC50 is defined as -log10 of the concentration c, with c in mol/L.

[[record]]
compound = "[O-][n+]1cc(-c2c(-n3cnnn3)ccc(Cl)c2F)ccc1[C@@H](CCOC(F)F)n1cc(-c2c(F)cncc2Cl)cn1 [Example P583]"
readout_value = 8.82


[O-][n+]1cc(-c2c(-n3cnnn3)ccc(Cl)c2F)ccc1C(Cc1ccn(C(F)F)n1)n1cc(-c2ccnc(C(F)(F)F)c2)cn1 (stereo not drawn) [Example P703] yielded pIC50 of 8.01

Cn1ncnc1-c1cnn([C@H](CCOC(F)F)c2ccc(-c3cc(Cl)ccc3-n3cc(C(F)(F)F)nn3)c[n+]2[O-])c1 [Example P805] yielded pIC50 of 6.59

NC(=O)c1ccc(-c2cnn(C(Cc3ccn(C(F)F)n3)c3ccc(-c4c(-n5cc(C(F)(F)F)nn5)ccc(Cl)c4F)c[n+]3[O-])c2)cc1F (stereo not drawn) [Example P952] yielded pIC50 of 8.64

NC(=O)c1ccc(-c2cnn(C(Cc3ccn(C(F)F)n3)c3ccc(-c4c(-n5cc(C(F)(F)F)nn5)ccc(Cl)c4F)c[n+]3[O-])c2)cc1 (single isomer, unassigned) [Example P908] yielded pIC50 of 9.52

----------
Biological target: human plasma kallikrein (Homo sapiens)
Experiment: Kallikrein inhibition FLINT assay with quenched AMC peptide substrate Z-Gly-Pro-Arg-AMC (end point EP or kinetic KIN reads)
Type: biochemical
Settings: end point read at 30 min; read-out: Kallikrein (EP) IC50
pIC50: −log10 of the molar value.
Label rule, in plain words: pIC50 of 7 and up is t, under 7 is f.

[[record]]
compound = "CC(C)(C)OCCC(c1ccc(-c2cc(Cl)ccc2-n2cnnn2)c[n+]1[O-])n1cc(-c2ccc(C(=O)O)cc2)cn1 (stereo not shown)"
discrete_label = "f"

[[record]]
compound = "COC(=O)Nc1ccc(-c2cnn(C(Cc3ccccc3)c3ccc(-c4cc(Cl)c(F)cc4-n4cnnn4)c[n+]3[O-])c2)cc1 (stereo not shown)"
discrete_label = "f"

[[record]]
compound = "COC(=O)Nc1ccc(-c2cnn(C(CC3CC3)c3ccc(-c4cc(Cl)ccc4-n4cc(Cl)nn4)c[n+]3[O-])c2)cc1 (stereo not shown)"
discrete_label = "f"


We now examine a further compound.
QUERY: Hello, I need to know if O=C(O)c1ccc(-c2cnn(C(CC3CC3)c3ccc(-c4c(-n5cnnn5)ccc(Cl)c4F)c[n+]3[O-])c2)cc1 (stereo not shown) has measured pIC50 not below 7. Thanks!
RESULT: t

----------
Target: human plasma kallikrein (Homo sapiens, UniProt P03952)
Assay: Kallikrein inhibition FLINT assay with quenched AMC peptide substrate Z-Gly-Pro-Arg-AMC (end point EP or kinetic KIN reads)
Type: biochemical
Settings: kinetic reads at 5 min intervals over 30 min; read-out: Kallikrein (KIN) IC50
Quick list: pIC50 per entry.
Formally, pIC50 is defined as -log10 of the concentration c, with c in mol/L.

[[record]]
compound = "[O-][n+]1cc(-c2cc(Cl)ccc2-n2cnnn2)ccc1C(Cc1ccc(Cl)cc1)n1cc(-c2ccc(OC(F)(F)F)cc2)cn1 (stereo not drawn) [Example P150]"
readout_value = 6.40


NC(=O)c1ccnn1CC(c1ccc(-c2c(C(F)F)ccc(Cl)c2F)c[n+]1[O-])n1cc(-c2ccnc(C(F)(F)F)c2)cn1 (single isomer, unassigned) [Example Q27] yielded pIC50 of 8.33

----------
Biological target: human plasma kallikrein (Homo sapiens)
Assay: Kallikrein inhibition FLINT assay with quenched AMC peptide substrate Z-Gly-Pro-Arg-AMC (end point EP or kinetic KIN reads)
Assay type: biochemical
Conditions: kinetic reads at 5 min intervals over 30 min; read-out: Kallikrein (KIN) IC50
pIC50: −log10 of the molar value.
Label rule, in plain words: pIC50 of 8 and up is criterion met, under 8 is criterion not met.

Use the examples below as a reference point.
[[record]]
compound = "[O-][n+]1cc(-c2cc(Cl)ccc2-n2cnnn2)ccc1C(Cn1cc2c(n1)COCC2)n1cc(-c2ccnc(C(F)(F)F)c2)cn1 (stereo not drawn) [Example P388]"
discrete_label = "criterion not met"

[[record]]
compound = "Cn1nnc(F)c1-c1cnn([C@H](CCOC(F)F)c2ccc(-c3c(-n4cc(C(F)(F)F)nn4)ccc(Cl)c3F)c[n+]2[O-])c1 [Example P754]"
discrete_label = "criterion not met"

[[record]]
compound = "[O-][n+]1ccc(-c2cnn(C(Cn3cc(F)cn3)c3ccc(-c4c(-n5cnnn5)ccc(Cl)c4F)c[n+]3[O-])c2)cc1 (stereo not drawn) [Example P360]"
discrete_label = "criterion not met"

[[record]]
compound = "Nc1ccc(-c2cnn(C(Cn3cc(F)cn3)c3ccc(-c4c(-n5cnnn5)ccc(Cl)c4F)c[n+]3[O-])c2)c(F)n1 (single isomer, unassigned) [Example P416]"
discrete_label = "criterion met"


We now examine a further compound.
QUERY: Hello, I need to know if NC(=O)c1ccc(-c2cnn(C(CCOC(F)F)c3ccc(-c4c(-n5cc(Cl)nn5)ccc(Cl)c4F)c[n+]3[O-])c2)cc1F (single isomer, unassigned) [Example P875] has measured pIC50 not below 8. Thanks!
RESULT: criterion met
